FYI, the data here is from patent US20220033484A1.

Reported koff is given for each of the following binders.
subject of test: T1, cTnI quality control product recombinant protein (human, UniProt P19429 2-210, limits assumed)
T1 construct: treated as the same molecule; also called cTnI antigen; cardiac troponin I
assay text: AMC sensor, antibody immobilised, cTnI in solution
Give the value in s⁻¹ but do not write s⁻¹ after it.

// worked examples, koff included
Give its koff value. Item: Mutation 1 (antibody, V domains shown, CDR mutant of WT) VH: EVQLQQSGPELVKPGASVKMSCKASGYTFTLYVVHWVKQKPGQGLEWIGYIQPYLDGTKYNEKFKGKATLTVDKSSSTAFMELSSLTSEDSAVYYCARSGYGGYGLAWLAYWGQGTLVTVSA VL: QAVVIQESALTTSPGETVTLTCRSSTGAATTSQYANWVQEKPDHLFTGLIGGSNNRAPGVPARFSGSLIGDKAALTITGAQTEDEAIYFCALVYSNHWVFGGGTKLTVLG
0.000214

Give its koff value. Item: Mutation 1-11 (antibody, V domains shown, Built as m8) VH: EVQLQQSGPELVKPGASVKMSCKASGYTFTLYVIHWVKQKPGQGLEWIGYINPYIDGTKYNEKFKGKATLTVDKSSSTAFMELSSLTSEDSAVYYCARSGYGGYGLAWLAYWGQGTLVTVSA VL: QAVVIQESALTTSPGETVTLTCRSSTGAVTTSNYANWVQEKPDHLFTGLIGGSQNRAPGVPARFSGSLIGDKAALTITGAQTEDEAIYFCALVYSNNWVFGGGTKLTVLG
0.000142

Give its koff value. Item: Mutation 1-14 (antibody, V domains shown, Built as m8) VH: EVQLQQSGPELVKPGASVKMSCKASGYTFTIYVIHWVKQKPGQGLEWIGYINPYIDGTKYNEKFKGKATLTVDKSSSTAFMELSSLTSEDSAVYYCARSGYGGYGLAWLAYWGQGTLVTVSA VL: QAVVIQESALTTSPGETVTLTCRSSTGAVTTSQYANWVQEKPDHLFTGLIGGSNNRAPGVPARFSGSLIGDKAALTITGAQTEDEAIYFCALVYSNHWVFGGGTKLTVLG
2.21e-05

Continuing:
Give its koff value. Item: Mutation 1-47 (antibody, V domains shown, Built as m8) VH: EVQLQQSGPELVKPGASVKMSCKASGYTFTLYVIHWVKQKPGQGLEWIGYINPYLDGTKYNEKFKGKATLTVDKSSSTAFMELSSLTSEDSAVYYCARSGYGGYGLAWLAYWGQGTLVTVSA VL: QAVVIQESALTTSPGETVTLTCRSSTGAATTSQYANWVQEKPDHLFTGLIGGSQNRAPGVPARFSGSLIGDKAALTITGAQTEDEAIYFCALVYSNHWVFGGGTKLTVLG
0.000196

Give its koff value. Item: Mutation 1-49 (antibody, V domains shown, Built as m8) VH: EVQLQQSGPELVKPGASVKMSCKASGYTFTLYVLHWVKQKPGQGLEWIGYINPYLDGTKYNEKFKGKATLTVDKSSSTAFMELSSLTSEDSAVYYCARSGYGNYGLAWLAYWGQGTLVTVSA VL: QAVVIQESALTTSPGETVTLTCRSSTGAVTTSQYANWVQEKPDHLFTGLIGGSQNRAPGVPARFSGSLIGDKAALTITGAQTEDEAIYFCALVYSNNWVFGGGTKLTVLG
0.000134

Give its koff value. Item: Mutation 1-18 (antibody, V domains shown, Built as m8) VH: EVQLQQSGPELVKPGASVKMSCKASGYTFTIYVVHWVKQKPGQGLEWIGYINPYLDGTKYNEKFKGKATLTVDKSSSTAFMELSSLTSEDSAVYYCARSGYGQYGLAWLAYWGQGTLVTVSA VL: QAVVIQESALTTSPGETVTLTCRSSTGAVTTSQYANWVQEKPDHLFTGLIGGSNNRAPGVPARFSGSLIGDKAALTITGAQTEDEAIYFCALVYSNHWVFGGGTKLTVLG
0.000586
